# credit: ChEMBL document CHEMBL4619722

tested on: NCI-H460; experiment: Antiproliferative activity against human NCI-H460 cells; format: functional, cell-based
Square brackets hold non-standard residues; d marks the D form. Peptide text beside a SMILES is read from it. * marks the point of attachment. ξ: configuration not given here. NH((S)CH(Me)CH2NHC2H4OH) = C[C@@H](CNCCO)N*; Gly(octyl) = CCCCCCCC[C@H](N)C(=O)O; Aib = CC(C)(N)C(=O)O; Butyryl = CCCC(=O)*; ξP = O=C(O)C1CCCN1; βAla = NCCC(=O)O
Assay Metric: pIC50
Value format note: pIC50 is -log10 of concentration (mol/L); just state the number.

// pIC50 (NCI-H460) for CCCCCCCC[C@H](NC(=O)C(C)(C)NC(=O)C(C)(C)NC(=O)[C@H](C)NC(=O)C1CCCN1C(=O)CCC)C(=O)N[C@@H](CC(C)C)C(=O)NC(C)(C)C(=O)N[C@@H](CC(C)C)C(=O)NCCC(=O)N[C@@H](C)CNCCO (stereo partly drawn) (Butyryl-[ξP]A[Aib][Aib][Gly(octyl)]L[Aib]L[βAla]-{NH((S)CH(Me)CH2NHC2H4OH)}) = 7.15

---

test system: NCI-H460; assay: Antiproliferative activity against human NCI-H460 cells; type: functional, cell-based
Square brackets hold non-standard residues; d marks the D form. Peptide text beside a SMILES is read from it. * marks the point of attachment. ξ: configuration not given here. Nva(5-pentanoyl) = CCCCC(=O)CCC[C@H](N)C(=O)O; NH((S)CH(Me)CH2NHC2H4OH) = C[C@@H](CNCCO)N*; Gly(octyl) = CCCCCCCC[C@H](N)C(=O)O; Aib = CC(C)(N)C(=O)O; Butyryl = CCCC(=O)*; ξP = O=C(O)C1CCCN1; βAla = NCCC(=O)O
Assay Metric: IC50 (µM)
Give your result in µM as a bare value.

{"Compound": "CCCCCCCC[C@H](NC(=O)C(C)(C)NC(=O)C(C)(C)NC(=O)[C@H](CCCC(=O)CCCC)NC(=O)C1CCCN1C(=O)CCC)C(=O)N[C@@H](CC(C)C)C(=O)NC(C)(C)C(=O)N[C@@H](CC(C)C)C(=O)NCCC(=O)N[C@@H](C)CNCCO (stereo partly drawn) (Butyryl-[ξP][Nva(5-pentanoyl)][Aib][Aib][Gly(octyl)]L[Aib]L[βAla]-{NH((S)CH(Me)CH2NHC2H4OH)})", "Uom": "µM", "IC50": 0.018}

Proceeding to the next compound to report its IC50.
// compound CCCCCCCC[C@H](NC(=O)C(C)(C)NC(=O)C(C)(C)NC(=O)[C@H](CCCC(=O)CCCC)NC(=O)C1CCCN1C(=O)CCC)C(=O)N[C@@H](C)C(=O)NC(C)(C)C(=O)N[C@@H](CC(C)C)C(=O)NCCC(=O)N[C@@H](C)CNCCO (stereo partly drawn) (Butyryl-[ξP][Nva(5-pentanoyl)][Aib][Aib][Gly(octyl)]A[Aib]L[βAla]-{NH((S)CH(Me)CH2NHC2H4OH)}) , assay NCI-H460, IC50 value: 0.103

---

test system: SK-BR-3; test: Antiproliferative activity against human SKBR3 cells; assay type: functional, cell-based
Square brackets hold non-standard residues; d marks the D form. Peptide text beside a SMILES is read from it. * marks the point of attachment. NH((S)CH(Me)CH2NHC2H4OH) = C[C@@H](CNCCO)N*; Gly(octyl) = CCCCCCCC[C@H](N)C(=O)O; Ac6c = NC1(C(=O)O)CCCCC1; Ac3c = NC1(C(=O)O)CC1; Aib = CC(C)(N)C(=O)O; Butyryl = CCCC(=O)*; βAla = NCCC(=O)O
Assay Metric: IC50 (nM)
All answers are understood in nM, so give the number only.

{"Compound": "CCCCCCCC[C@H](NC(=O)C(C)(C)NC(=O)C(C)(C)NC(=O)C1(NC(=O)[C@@H]2CCCN2C(=O)CCC)CC1)C(=O)N[C@@H](CC(C)C)C(=O)NC(C)(C)C(=O)N[C@@H](CC(C)C)C(=O)NCCC(=O)N[C@@H](C)CNCCO (Butyryl-P[Ac3c][Aib][Aib][Gly(octyl)]L[Aib]L[βAla]-{NH((S)CH(Me)CH2NHC2H4OH)})", "Quantitative Readout": 236}

Now turn to the next compound.
Reported IC50 of CCCCCCCC[C@H](NC(=O)C(C)(C)NC(=O)C(C)(C)NC(=O)C1(NC(=O)[C@@H]2CCCN2C(=O)CCC)CCCCC1)C(=O)N[C@@H](CC(C)C)C(=O)NC(C)(C)C(=O)N[C@@H](CC(C)C)C(=O)NCCC(=O)N[C@@H](C)CNCCO (Butyryl-P[Ac6c][Aib][Aib][Gly(octyl)]L[Aib]L[βAla]-{NH((S)CH(Me)CH2NHC2H4OH)}) : 96
